Target: T1, similar peptide SP-05-0004, source protein not stated peptide on HLA-A*02:01 (human)
T1 peptide: KIWEWLVGV
Assay: killing
propertyLabel: binding result

Recorded results for 4 binders are shown here.
binder	binding result
TCR-12 (TCR, V domains shown) Valpha: QLLEQSPQFLSIQEGENLTVYCNSSSVFSSLQWYRQEPGEGPVLLVTVVTGGEVKKLKRLTFQFGDARKDSSLHITAAQPGDTGLYLCAGGLSDSYDKVIFGPGTSLSVIP Vbeta: EVTQTPKHLVMGMTNKKSLKCEQHMGHRAMYWYKQKAKKPPELMFVYSYEKLSINESVPSRFSPECPNSSLLNLHLHALQPEDSALYLCASSQGVGQEYGYTFGSGTRLTVV	no recognition
TCR-11 (TCR, V domains shown) Valpha: IQVEQSPPDLILQEGANSTLRCNFSDSVNNLQWFHQNPWGQLINLFYIPSGTKQNGRLSATTVATERYSLLYISSSQTTDSGVYFCAVNTGTASKLTFGTGTRLQVTL Vbeta: GVTQTPKFQVLKTGQSMTLQCAQDMNHNSMYWYRQDPGMGLRLIYYSASEGTTDKGEVPNGYNVSRLNKREFSLRLESAAPSQTSVYFCASSPRGQGRSYEQYFGPGTRLTVT	no recognition
TCR-10 (TCR, V domains shown) Valpha: QNIDQPTEMTATEGAIVQINCTYQTSGFNGLFWYQQHAGEAPTFLSYNVLDGLEEKGRFSSFLSRSKGYSYLLLKELQMKDSASYLCAVPAPYTGTASKLTFGTGTRLQVTL Vbeta: GVTQTPKFQVLKTGQSMTLQCAQDMNHNSMYWYRQDPGMGLRLIYYSASEGTTDKGEVPNGYNVSRLNKREFSLRLESAAPSQTSVYFCASSEGYSTYNEQFFGPGTRLTVL	no recognition
TCR-1 (TCR, V domains shown) Valpha: QTVTQSQPEMSVQEAETVTLSCTYDTSENNYYLFWYKQPPSRQMILVIRQEAYKQQNATENRFSVNFQKAAKSFSLKISDSQLGDTAMYFCAPLGLVAGSARQLTFGSGTQLTVLP Vbeta: GVSQDPRHKITKRGQNVTFRCDPISEHNRLYWYRQTLGQGPEFLTYFQNEAQLEKSRLLSDRFSAERPKGSFSTLEIQRTEQGDSAMYLCASSTDITSYEQYFGPGTRLTVT	no recognition

In: Fill in the blank: the reported binding result of TCR-13 (TCR, V domains shown) Valpha: QKITQTQPGMFVQEKEAVTLDCTYDTSDQSYGLFWYKQPSSGEMIFLIYQGSYDEQNATEGRYSLNFQKARKSANLVISASQLGDSAMYFCAMSDPIMDTGRRALTFGSGTRLQVQP Vbeta: GITQSPKYLFRKEGQNVTLSCEQNLNHDAMYWYRQDPGQGLRLIYYSQIVNDFQKGDIAEGYSVSREKKESFPLTVTSAQKNPTAFYLCASKSRGPNLADTQYFGPGTRLTVL is ____.
Out: no recognition
